test system: SF-539; experiment: NCI tumour cell line growth inhibition, 48 h
The source made the active and inactive calls. Cut-off read from the data, not from the text of the source: active = GI50 up to about 1.1 µM and inactive = higher. Where a SMILES comes first, the peptide text is derived from it. Square brackets hold non-standard residues; d marks the D form. Peptide text beside a SMILES is read from it. [ ]: non-standard residue; d: D form. The star is where a group is joined. * marks the point of attachment. X26 = COC1=CC(=O)N(C(=O)[C@@H](O*)C(C)C)[C@H]1Cc1ccccc1; Phe(4-NO2) = N[CH](Cc1ccc([N+](=O)[O-])cc1)C(=O)O; NMeL = CN[C@@H](CC(C)C)C(=O)O; Hexanoyl = CCCCCC(=O)*; Boc = CC(C)(C)OC(=O)*; OtBu = CC(C)(C)O*
Provide the recorded GI50 for the entries that follow.

Input line: Requested read-out GI50, target or system SF-539, entry COC1(OC)C2(Cl)C3=CCCC=C3C1(Cl)C(Cl)=C2Cl
Output line: 29 µM (inactive)

Input line: Another molecule to check: CC(C)c1ccc(/C=C2/C=C(c3ccc4ccccc4c3)OC2=O)cc1
Output line: > 100 µM (inactive)

Input line: Another molecule to check: CC(C)(C)OC(=O)Nc1nnc(S(N)(=O)=O)s1
Output line: > 100 µM (inactive)

Input line: Another molecule to check: CC(=O)OCC1OC(N2C(=O)CC(N)=Nc3ccccc32)C(OC(C)=O)C(OC(C)=O)C1OC(C)=O (stereo not given)
Output line: 23.2 µM (inactive)

Input line: Another molecule to check: C/C(=N/OCCC(=O)O)C1CC1
Output line: > 100 µM (inactive)

Input line: Another molecule to check: O/N=C1/C(=C/c2ccc(Cl)cc2)CCCC1C(NO)c1ccc(Cl)cc1 (stereo not given)
Output line: 25.2 µM (inactive)

Input line: Another molecule to check: O=[N+]([O-])c1ccc2nc(-c3ccccn3)c(-c3ccccn3)nc2c1
Output line: 45.9 µM (inactive)

Input line: Another molecule to check: CC1CN=C(Nc2ccc(F)cc2F)S1 (stereo not given)
Output line: > 100 µM (inactive)

Input line: Another molecule to check: C/C(=C/CNc1ncnc2c1ncn2CCC#N)CO
Output line: > 100 µM (inactive)

Input line: Another molecule to check: COC(=O)c1ccccc1CC1Cc2ccc3c(c2C1)CCC3 (stereo not given)
Output line: 56.2 µM (inactive)

Input line: Another molecule to check: CCOc1ccccc1/N=N/c1c(-c2ccccc2)nn(C(=O)CC(=O)Nc2cccc(C)c2)c1-c1ccccc1
Output line: > 100 µM (inactive)

Input line: Another molecule to check: CC(=O)c1c(SCCN2CCOCC2)n(-c2ccccc2)c(=S)n(-c2ccccc2)c1=O
Output line: 21.6 µM (inactive)

Input line: Another molecule to check: COC(=O)C(Cc1ccc([N+](=O)[O-])cc1)NC(=O)C(CC(=O)OC(C)(C)C)NC(=O)OC(C)(C)C (stereo not given) (Boc-Asp(OtBu)-[Phe(4-NO2)]-OMe; configuration not given here)
Output line: > 100 µM (inactive)

Input line: Another molecule to check: C=CCOc1cccc(C2(O)c3ccccc3C3=NCCCN32)c1 (stereo not given)
Output line: 15.8 µM (inactive)

Input line: Another molecule to check: COc1ccc(/C=N/N=C(\N)NO)c(O)c1
Output line: > 10 µM (inactive)

Input line: Another molecule to check: Cc1cn(C2CC(ON3C(=O)c4ccccc4C3=O)C(CO)O2)c(=O)[nH]c1=O (stereo not given)
Output line: > 10 µM (inactive)

Input line: Another molecule to check: CCCCN1C(=O)c2c(-c3sccc3N)sc(-c3sccc3N)c2C1=O
Output line: 12.4 µM (inactive)

Input line: Another molecule to check: Cc1c(C(=O)CC(=O)C(=O)NC2C3CC4CC(C3)CC2C4)[n+]([O-])c2ccccc2[n+]1[O-] (stereo not given)
Output line: > 100 µM (inactive)

Input line: Another molecule to check: CCC(=C(C#N)C#N)c1cc(OC)c(OC)c(OC)c1
Output line: > 100 µM (inactive)

Input line: Another molecule to check: COc1ccc(CNc2cnc3cc(N)ccc3n2)cc1
Output line: > 100 µM (inactive)

Input line: Another molecule to check: CCCCCC(=O)N[C@H](C(=O)N[C@H](C(=O)N(C)[C@@H](CC(C)C)C(=O)N1CCC[C@H]1C(=O)N1CCC[C@H]1C(=O)O[C@H](C(=O)N1C(=O)C=C(OC)[C@@H]1Cc1ccccc1)C(C)C)C(C)C)C(C)C (Hexanoyl-VV[NMeL]PP-X26)
Output line: > 59.2 µM (inactive)

Input line: Another molecule to check: C=CCOc1ccc(C2(c3ccc(OCC=C)cc3)C(=O)Nc3ccccc32)cc1
Output line: > 10 µM (inactive)

Input line: Another molecule to check: CC(=O)n1nc(-c2ccccc2)n(/N=C/c2ccc([N+](=O)[O-])cc2)c1=O
Output line: > 100 µM (inactive)

Input line: Another molecule to check: COC(=O)CCCC(=O)NC1=C(Nc2ccc(OC)cc2)C(=O)c2ccccc2C1=O
Output line: 19.3 µM (inactive)

Input line: Another molecule to check: Cc1ccnc(Nc2[nH]c(C(=O)c3ccc(Cl)cc3)c(N)c2C(=S)Nc2ccccc2)c1
Output line: 12.7 µM (inactive)

Input line: Another molecule to check: C=C(C)C1CC/C(C)=C/CCC2(C)OC2CC/C(CO)=C\C1O (stereo not given)
Output line: 67 µM (inactive)

Input line: Another molecule to check: CSc1ccc2c(cc1=O)[C@@H](NC(=O)c1ccc([N+](=O)[O-])cc1)CCc1cc(O)c(O)c(O)c1-2
Output line: 28.8 µM (inactive)

Input line: Another molecule to check: O=C(c1ccccc1)c1nnn(Cc2ccccc2Cn2nnc(C(=O)c3ccccc3)c2C(=O)c2ccccc2)c1C(=O)c1ccccc1
Output line: > 100 µM (inactive)

Input line: Another molecule to check: O=c1c2cc(S(=O)(=O)Nc3ccccc3Cl)ccc2ncn1NS(=O)(=O)c1ccc(Br)cc1
Output line: > 37.5 µM (inactive)

Input line: Another molecule to check: C=CC(=O)N1C/C(=C\c2ccccc2)C(=O)/C(=C/c2ccccc2)C1
Output line: 1.58 µM (inactive)

Input line: Another molecule to check: CC(C)(c1ccc(OC#N)cc1)c1ccc(OC#N)cc1
Output line: > 100 µM (inactive)

Input line: Another molecule to check: Cc1ccc(S(=O)(=O)NCCN(CCNS(=O)(=O)c2ccc(C)cc2)S(=O)(=O)c2ccc(C)cc2)cc1
Output line: 42.5 µM (inactive)

Input line: Another molecule to check: CN1Cc2ccccc2/C=C\c2ccccc21
Output line: > 100 µM (inactive)

Input line: Another molecule to check: COC(=O)C(C)(/N=C/c1ccccc1)c1ccccc1 (stereo not given)
Output line: > 100 µM (inactive)

Input line: Another molecule to check: COc1ccc(C(=O)CC(=O)C(=O)Nc2ccc(C)c(C)c2)cc1
Output line: > 100 µM (inactive)

Input line: Another molecule to check: COc1ccc(OC(C)C(=O)O)c2c1CCCC2=O (stereo not given)
Output line: > 100 µM (inactive)

Input line: Another molecule to check: CN(C)CCOc1cccc2c1C(=O)c1ccccc1C2=O
Output line: 10.4 µM (inactive)

Input line: Another molecule to check: COc1ccc(Cn2c(=O)c(OC)c(C)c3cc4ccccc4cc32)cc1
Output line: 32.7 µM (inactive)

Input line: Another molecule to check: [O-]c1c[n+](CCCC[n+]2cc([O-])on2)no1
Output line: > 100 µM (inactive)

Input line: Another molecule to check: O=[N+]([O-])c1ccc2nc(/C(=N\Nc3ccccc3)C(O)c3ccc4c(c3)OCO4)c(O)nc2c1 (stereo not given)
Output line: > 100 µM (inactive)

* * *

test system: COLO 205; assay: NCI tumour cell line growth inhibition, 48 h
Calls of active or inactive are those of the source. No stated cut-off is given here; in the data, active = GI50 up to about 1.1 µM and inactive = higher. Square brackets hold non-standard residues; d marks the D form. Peptide text beside a SMILES is read from it. * marks the point of attachment. X26 = COC1=CC(=O)N(C(=O)[C@@H](O*)C(C)C)[C@H]1Cc1ccccc1; NMeL = CN[C@@H](CC(C)C)C(=O)O; Hexanoyl = CCCCCC(=O)*
PROPERTY NAME: GI50

Input line: // GI50 lookup, key: Nc1cccc(/C=C/CN2CCN(CCOC(c3ccccc3)c3ccccc3)CC2)c1
Output line: 6.03 µM (inactive)

Input line: Another compound to check: CC(C)(C)OC(=O)Nc1nnc(S(N)(=O)=O)s1
Output line: > 100 µM (inactive)

Input line: Another compound to check: CSc1nnc(SC)nn1
Output line: 18.7 µM (inactive)

Input line: Another compound to check: OC[C@]1(n2nc3ccccc3n2)OC[C@@H]1c1ccccc1
Output line: 55.5 µM (inactive)

Input line: Another compound to check: CC(C)/C(Cl)=N/OC(=O)Nc1ccc(Br)cc1
Output line: 1.88 µM (inactive)

Input line: Another compound to check: Cn1cnc([N+](=O)[O-])c1Sc1nc2ccccc2s1
Output line: 3.33 µM (inactive)

Input line: Another compound to check: CCN(CC)CCCNc1nncc2cc3c([nH]c4ccc(OC)cc43)c(C)c12
Output line: 7.26 µM (inactive)

Input line: Another compound to check: CSc1nc(SC)c2c(CO)c(Br)n(Cc3ccccc3)c2n1
Output line: > 100 µM (inactive)

Input line: Another compound to check: CCCCCC(=O)N[C@H](C(=O)N[C@H](C(=O)N(C)[C@@H](CC(C)C)C(=O)N1CCC[C@H]1C(=O)N1CCC[C@H]1C(=O)O[C@H](C(=O)N1C(=O)C=C(OC)[C@@H]1Cc1ccccc1)C(C)C)C(C)C)C(C)C (Hexanoyl-VV[NMeL]PP-X26)
Output line: 32.5 µM (inactive)

Input line: Another compound to check: CCCC(CC)c1cc(O)c(O)cc1C(CC)CCC (stereo unspecified)
Output line: > 10 µM (inactive)

Input line: Another compound to check: COC(=O)C1CCC(=O)N1CN(C(C)=O)c1ccccc1 (stereo unspecified)
Output line: > 100 µM (inactive)

Input line: Another compound to check: Cc1cc(C)n(C(=O)CSc2nc3ccc(I)cc3c(=O)n2Cc2ccccc2)n1
Output line: 59.7 µM (inactive)

Input line: Another compound to check: O=C1OC(c2ccccc2)=N/C1=C\c1c(O)cc(O)cc1O
Output line: > 100 µM (inactive)

Input line: Another compound to check: CC(C)(C)c1cc(C(=O)O)c2c(c1)C(=O)OC2(c1ccccc1)c1ccccc1C(=O)O (stereo unspecified)
Output line: 41.1 µM (inactive)

Input line: Another compound to check: CC(=O)OC(CC(C)C)P1(=O)N(CC(C)(C)C)[C@@H]2CCCC[C@H]2N1CC(C)(C)C (stereo partly specified)
Output line: 6 µM (inactive)

Input line: Another compound to check: Nc1ccc2nc3ccc(=O)cc-3n(-c3ccccc3)c2c1
Output line: 41 µM (inactive)

Input line: Another compound to check: CCCCCCCc1c(Cl)nc(Cl)nc1Cl
Output line: 5.25 µM (inactive)

Input line: Another compound to check: CC(C)CCS(=O)(=O)OCCCCOS(=O)(=O)CCC(C)C
Output line: > 100 µM (inactive)

Input line: Another compound to check: CC(=O)NC1C(OCc2ccccc2)OC(COC(=O)CCCCCNc2ccc([N+](=O)[O-])c3[nH]c4ccc(O)cc4c(=O)c23)C(O)C1OC(C)C(=O)N[C@@H](C)C(=O)N[C@H](CCC(=O)OCc1ccccc1)C(N)=O (stereo partly specified)
Output line: 1.55 µM (inactive)

Input line: Another compound to check: COC1=C2CC(C)CC(OC)[C@@H](OC(=O)CCN)[C@H](C)/C=C(\C)C(OC(N)=O)C(OC)/C=C\C=C(/C)C(=O)NC(=CC1=O)C2=O (stereo partly specified)
Output line: 0.27 µM (active)

Input line: Another compound to check: COc1ccc(C(=O)CC(=O)C(=O)Nc2ccc(C)c(C)c2)cc1
Output line: > 51.9 µM (inactive)

Input line: Another compound to check: O=C(c1ccccc1)c1ccc(N2C(=O)/C(=C/c3ccccc3S)N=C2c2ccccc2)c(N2C(=O)/C(=C/c3ccccc3S)N=C2c2ccccc2)c1
Output line: 60.1 µM (inactive)

Input line: Another compound to check: CCCCc1ccc(-n2sc3ncc(-c4ccccc4)cc3c2=O)cc1
Output line: > 100 µM (inactive)

Input line: Another compound to check: Cc1c(C2Cc3ccccc3N2C(=O)/C=C\C(=O)O)c2ccccc2n1C (stereo unspecified)
Output line: 17.1 µM (inactive)

Input line: Another compound to check: Cc1ccc(S[C@@H](C)[C@@](O)(C(N)=O)c2ccccc2)cc1
Output line: 34.4 µM (inactive)

Input line: Another compound to check: CN1Cc2ccccc2/C=C\c2ccccc21
Output line: 44.5 µM (inactive)

Input line: Another compound to check: Nc1ccccc1.O=P(O)(OP(=O)(O)c1ccccc1)c1ccccc1
Output line: > 100 µM (inactive)

Input line: Another compound to check: COc1ccc(Oc2ccccc2N)cc1
Output line: 16.6 µM (inactive)

Input line: Another compound to check: N#CC(C#N)=Cc1ccc2c(c1)OC(Cl)O2 (stereo unspecified)
Output line: 24.3 µM (inactive)

Input line: Another compound to check: C/C(=C/CNc1ncnc2c1ncn2CCC#N)CO
Output line: > 100 µM (inactive)

Input line: Another compound to check: O=c1c2cc(S(=O)(=O)Nc3ccccc3Cl)ccc2ncn1NS(=O)(=O)c1ccc(Br)cc1
Output line: > 37.5 µM (inactive)

Input line: Another compound to check: CN(C)c1ccc(C2CC(c3ccc4ccccc4c3O)=NN2c2ccc([N+](=O)[O-])cc2[N+](=O)[O-])cc1 (stereo unspecified)
Output line: 38.7 µM (inactive)

Input line: Another compound to check: CCN(CC)CCCn1cnc2ncccc2c1=O
Output line: > 100 µM (inactive)

Input line: Another compound to check: CC(=O)OCC1OC(N2C(=O)CC(N)=Nc3ccccc32)C(OC(C)=O)C(OC(C)=O)C1OC(C)=O (stereo unspecified)
Output line: 15.1 µM (inactive)

Input line: Another compound to check: CC[C@@H]1C[C@@H](O)[C@@H]2[C@H](O)[C@H](O)CN2C1
Output line: > 100 µM (inactive)

Input line: Another compound to check: c1ccc2c(c1)ncn2C1CCCCO1 (stereo unspecified)
Output line: > 100 µM (inactive)

Input line: Another compound to check: COC(=O)CCC1(O)C=CC(=O)C=C1
Output line: 17.6 µM (inactive)

Input line: Another compound to check: CCC1=[N+]([O-])C(C)(C)NC1(C)C
Output line: > 10 µM (inactive)

Input line: Another compound to check: Cc1nc2ccccc2c(=O)n1/N=C(\N=N\c1ccccc1Cl)c1ccccc1
Output line: 21.5 µM (inactive)

Input line: Another compound to check: CC1=C(C(=O)Nc2ccccc2)C(c2cc(Cl)cc(Cl)c2)C(C(=O)Nc2ccccc2)=C(C)N1
Output line: 17 µM (inactive)

Input line: Another compound to check: CC(=O)OC(C)c1cc2c(s1)C(=O)c1c(C(C)OC(C)=O)csc1C2=O (stereo unspecified)
Output line: 1.91 µM (inactive)
